Molecular target: T1, Human IL2Rγ extracellular domain expressed with a C-terminal mouse IgG2a Fc tag (human)
T1 construct: whole entry is the Fc-fused construct; also called hIL-2Rg-mFc
T1 chain: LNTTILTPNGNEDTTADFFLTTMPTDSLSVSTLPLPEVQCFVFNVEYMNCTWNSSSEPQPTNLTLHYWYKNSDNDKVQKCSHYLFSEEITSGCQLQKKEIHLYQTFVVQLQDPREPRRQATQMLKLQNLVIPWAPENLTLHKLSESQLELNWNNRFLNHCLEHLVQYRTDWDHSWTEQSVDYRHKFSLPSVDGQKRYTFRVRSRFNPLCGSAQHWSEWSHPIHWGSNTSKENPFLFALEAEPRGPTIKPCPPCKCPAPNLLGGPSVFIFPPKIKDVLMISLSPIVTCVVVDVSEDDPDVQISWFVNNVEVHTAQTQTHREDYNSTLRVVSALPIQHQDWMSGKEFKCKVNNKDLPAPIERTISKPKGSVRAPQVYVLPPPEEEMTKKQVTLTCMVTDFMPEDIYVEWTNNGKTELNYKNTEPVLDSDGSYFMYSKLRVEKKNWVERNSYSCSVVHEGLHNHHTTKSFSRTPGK
Experiment: SPR Biacore 4000, anti-hFc-captured mAb, 25 C
Experimental readout: kon (M⁻¹ s⁻¹)

>>> observed("H4H12884P (antibody, human IgG4 S228P, kappa, V domains shown, fully human anti-IL2Rgamma mAb, human IgG4 Fc) VH: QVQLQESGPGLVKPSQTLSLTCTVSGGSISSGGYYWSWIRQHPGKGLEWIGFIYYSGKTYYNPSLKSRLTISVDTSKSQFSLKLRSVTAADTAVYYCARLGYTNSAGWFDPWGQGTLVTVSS VL: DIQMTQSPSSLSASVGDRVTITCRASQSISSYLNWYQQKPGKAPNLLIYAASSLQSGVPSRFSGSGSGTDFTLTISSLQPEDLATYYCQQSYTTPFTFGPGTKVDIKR")
355000
>>> observed("H4H12863P (antibody, human IgG4 S228P, kappa, V domains shown, fully human anti-IL2Rgamma mAb, human IgG4 Fc) VH: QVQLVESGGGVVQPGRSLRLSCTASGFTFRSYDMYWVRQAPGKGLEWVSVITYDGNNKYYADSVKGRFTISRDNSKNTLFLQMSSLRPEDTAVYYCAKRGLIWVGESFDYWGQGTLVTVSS VL: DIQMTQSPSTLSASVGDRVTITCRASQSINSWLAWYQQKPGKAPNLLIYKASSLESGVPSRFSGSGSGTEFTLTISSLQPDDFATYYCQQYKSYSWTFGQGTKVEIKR")
399000
